Would you mind telling me the reported log10 IC50 of each entry?
Experimental system: human α-amylase (Homo sapiens, UniProt P04746)
Construct: purchased Abcam ab283391
Sequence (P04746 16-511): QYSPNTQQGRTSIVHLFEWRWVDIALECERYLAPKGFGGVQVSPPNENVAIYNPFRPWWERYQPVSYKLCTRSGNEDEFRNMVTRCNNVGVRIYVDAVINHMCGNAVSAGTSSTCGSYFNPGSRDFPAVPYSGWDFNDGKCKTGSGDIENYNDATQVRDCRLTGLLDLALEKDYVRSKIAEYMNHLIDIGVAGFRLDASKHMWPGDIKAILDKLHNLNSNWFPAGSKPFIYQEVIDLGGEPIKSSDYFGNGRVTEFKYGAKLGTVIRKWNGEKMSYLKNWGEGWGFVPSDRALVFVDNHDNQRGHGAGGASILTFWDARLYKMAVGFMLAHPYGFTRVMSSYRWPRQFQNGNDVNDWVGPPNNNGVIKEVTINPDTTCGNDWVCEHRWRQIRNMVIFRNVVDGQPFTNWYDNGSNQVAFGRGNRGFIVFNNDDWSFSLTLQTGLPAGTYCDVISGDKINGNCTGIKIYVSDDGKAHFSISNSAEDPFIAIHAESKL
Assay method text: α-amylase inhibitor screening kit assay
Assay type: biochemical
Protocol conditions: mean ± SD, triplicate; tested at 1, 5, 10, 25, 50 µM
A difference of one corresponds to tenfold IC50; all values are log10 with IC50 in µM.

Value of log10 IC50 reported for the molecule COc1ccc(C2Nc3c(Br)cc(I)cc3C(C)=[N+]2[O-])cc1 (stereo not shown) [Compound 3p] is 1.87

Record summary for COc1ccc(C2Nc3c(I)cc(Br)cc3C(C)=[N+]2[O-])cc1 (stereo not shown) [Compound 3l] : reported log10 IC50 = 1.73

Reported log10 IC50 of CC1=[N+]([O-])C(c2ccc(F)cc2)Nc2ccc(Br)cc21 (stereo not shown) [Compound 3b] : 1.56

Per the records, this molecule ( CC1=[N+]([O-])C(c2ccc(Cl)cc2)Nc2ccc(Br)cc21 (stereo not shown) [Compound 3c] ) has log10 IC50 equal to 1.48

Entry CC1=[N+]([O-])C(c2ccc(Cl)cc2)Nc2ccc(I)cc21 (racemic) [Compound 3g] ; log10 IC50 = 1.73

The molecule listed as CC1=[N+]([O-])C(c2ccc(F)cc2)Nc2c(I)cc(Br)cc21 (stereo not shown) [Compound 3j] shows log10 IC50 equal to 1.24

Measured log10 IC50 of CC1=[N+]([O-])C(c2ccccc2)Nc2c(I)cc(Br)cc21 (stereo not shown) [Compound 3i] : 0.07

Looking up CC1=[N+]([O-])C(c2ccccc2)Nc2ccc(I)cc21 (stereo not shown) [Compound 3e] , I found its log10 IC50 recorded as 1.69

So, CC1=[N+]([O-])C(c2ccc(F)cc2)Nc2ccc(I)cc21 (stereo not shown) [Compound 3f] ? Its log10 IC50 was -0.19

log10 IC50 reading for COc1ccc(C2Nc3ccc(Br)cc3C(C)=[N+]2[O-])cc1 (stereo not shown) [Compound 3d] : 1.73

Reference source for all entries: paper PMC10669220
